Several reports have described Kd for Retinoic acid receptor alpha (Homo sapiens); a selection of those results is presented here.
observedProperty: Kd (nM)

Example results:
- chemicalStructure: "CC(C)(C)c1cc(C(=O)Nc2cc(F)c(C(=O)O)c(F)c2)cc(C(C)(C)C)n1"
  Kd, nM: 62
- chemicalStructure: "CC1(C)CCSc2ccc(C#Cc3ccc(C(=O)O)cn3)cc21"
  Kd, nM: 901
- chemicalStructure: "Cc1ccc(N2CCC(C)(C)c3ccc(/C=C/c4ccc(C(=O)O)cc4)cc32)cc1"
  Kd, nM: 11

A = CC(C)=C1CCC(C)(C)c2ccc(C(=O)Nc3ccc(C(=O)O)cc3)cc21
B = CCOc1c(\C(=C(F)/C=C/C(C)=C/C(=O)O)C(C)C)cc2c(c1Br)C(C)(C)CC=C2C(C)C
Which entry has a larger number for Kd, A or B ? # answer = label of selected item
A
(A: 192 nM, B: 29 nM)

====

Several reports have described Kd for Retinoic acid receptor alpha (Homo sapiens, UniProt P10276); a selection of those results is presented here.
observedProperty: Kd (µM)

- chemicalStructure: "Cc1ccc(C2=CC(C)(C)Oc3cc4ccc(-c5ccc(C(=O)O)cc5)cc4cc32)s1"
  Kd (µM): 0.017

P = Cc1ccc(C2=C(/C=C/C#Cc3ccc(C(=O)O)cc3)C(C)(C)CCC2)cc1
Q = C#Cc1cc(C(=O)Oc2ccc(CC(=O)OCOC(C)=O)c(F)c2)cc2c1OC(C)(C)CC2(C)C
R = CC1(C)CC(C)(C)c2cc(C#Cc3ccc(C(=O)O)cc3)ccc2O1
S = COc1ccc(-c2ccc3cc(C4=C(O)CCC4=O)ccc3c2)cc1C12CC3CC(CC(C3)C1)C2
Arrange the 4 entries by Kd so the values rise. Reply with the item labels sorted in the order that was asked for.
R, P, Q, S

====

Several reports have described Kd for Retinoic acid receptor alpha (Homo sapiens); a selection of those results is presented here.
observedProperty: Kd (nM)

- molecule: "CCC(CC)=C1CCC(C)(C)c2ccc(/C=C/c3ccc(C(=O)O)cc3)cc21"
  observedProperty: "Kd"
  measurementUnit: "nM"
  obsValue: 4

A = COC(=O)c1ccc(Oc2cc(C#Cc3ccc(C(=O)O)c(F)c3)ccc2C(C)(C)C)cc1
B = CCOc1c(\C(C)=C(F)/C=C/C(C)=C/C(=O)O)cc2c(c1Br)C(C)(C)CC=C2C(C)(C)C
C = CC1(C)CC=C(c2cccs2)c2ccc(C(=O)C=Cc3ccc(C(=O)O)cc3)cc21
Arrange the 3 entries by Kd so the values rise. Reply with the item labels sorted in the order that was asked for.
A, C, B
(A: 15 nM, C: 235 nM, B: 997 nM)

I = CC1(C)CCC(=O)c2cc(/C=C/c3ccc(C(=O)O)cc3)ccc21
II = CCc1ccc(Oc2cc(C#Cc3ccc(C(=O)O)c(F)c3)ccc2C(C)(C)C)cc1
III = CC1(C)CCC(OC2CCCCO2)c2cc(C(=O)Oc3ccc(C(=O)O)cc3)ccc21 (single isomer, unassigned)
IV = CC(C)(C)c1ccc(C#Cc2ccc(C(=O)O)c(F)c2)cc1Oc1ccc(I)cc1
Order these by Kd, descending, and give the full ranking. Reply with the item labels sorted in the order that was asked for.
I, III, IV, II

====

Several reports have described pKd for Retinoic acid receptor alpha (Homo sapiens, UniProt P10276); a selection of those results is presented here.
pKd: −log10 of the molar value.
observedProperty: pKd

Example results:
- compound: "CC(C)(C)c1cc(C(=O)Nc2cc(F)c(C(=O)O)c(F)c2)cc(C(C)(C)C)c1"
  obsValue: 7.06
- compound: "CCCOc1c(\\C(C)=C(F)/C=C/C(C)=C/C(=O)O)cc2c(c1Br)C(C)(C)CC=C2C(C)C"
  obsValue: 7.04
- compound: "CCCCCOc1c(C(C)(C)C)cc(/C(C)=C/C=C/C(C)=C/C(=O)O)cc1C(C)(C)C"
  obsValue: 8.05

P = CCOc1c(\C(CC)=C(F)/C=C/C(C)=C/C(=O)O)cc2c(c1Br)C(C)(C)CC=C2C(C)CC (centres unmarked)
Q = CCCOc1c(C(C)(C)C)cc(/C(C)=C/C=C/C(C)=C/C(=O)O)cc1C(C)(C)C
Consider entries P and Q . Which has the numerically lower pKd? # answer = label of selected item
P
(P: 7.49, Q: 8.70)

1 = Cc1ccc(Oc2cc(C#Cc3ccc(C(=O)O)c(F)c3)ccc2C(C)(C)C)cc1
2 = C=C(c1ccc(C)cc1)c1cc(C#Cc2ccc(C(=O)O)cc2)ccc1OCOC
Consider entries 1 and 2 . Which has the numerically lower pKd? # answer = label of selected item
2
(2: 6.03, 1: 7.96)

a = CC(C)(C)c1ccc(C#Cc2ccc(C(=O)O)c(F)c2)cc1Oc1ccc(C(F)(F)F)cc1
b = COc1ccc(C#Cc2ccc(C(=O)O)cc2)cc1C(=O)c1ccc(C)cc1
c = CC12CCC(C1)C1(C)Oc3ccc(C(=O)COc4ccc(C(=O)O)cc4)cc3C21C (centres unmarked)
d = Cc1ccc(C(=O)c2cc(C#Cc3ccc(C(=O)O)cc3)ccc2O)cc1
e = CC(C)(C)c1cc(C(=O)Nc2ccc(C(=O)O)c([N+](=O)[O-])c2)cc(C(C)(C)C)n1
Arrange the 5 entries by pKd so the values rise. Reply with the item labels sorted in the order that was asked for.
c, b, d, e, a
(c: 5.49, b: 5.80, d: 6.47, e: 7.03, a: 7.77)

A = Cc1ccc(Oc2cc(/C=C/c3ccc(C(=O)O)cc3)ccc2C(C)(C)C)cc1
B = CC(C)(O)/C=C\C1=CCC(C)(C)c2ccc(/C=C/c3ccc(C(=O)O)cc3)cc21
Consider entries A and B . Which has the numerically lower pKd? # answer = label of selected item
A
(A: 7.90, B: 8.80)
